# Assay overview: Cytotoxicity determination by CCK-8 assay, HepG2.2.15 cells
# Format: cell-based
# Condition: human, 6 days treatment
We label by threshold. Values of CC50 at 6 days strictly beneath 60 nM are Yes. Values of 60 nM and up are No.

Molecule	Category label
CCOC(=O)C1=C(C23C4C5C2C2C3C4C52C(=O)O)NC(c2nccs2)=NC1c1ccc(Cl)c(F)c1 (single isomer, unassigned)	Yes
CCOC(=O)C1=C(C23C4C5C2C2C3C4C52C(=O)O)NC(c2nccs2)=N[C@@H]1c1cccc(F)c1Br (single isomer, unassigned)	Yes
CCOC(=O)C1=C(C23C4C5C2C2C3C4C52C(=O)O)NC(c2nccs2)=N[C@@H]1c1ccccc1Cl (stereo in doubt)	No
COC(=O)C1=C(C23C4C5C2C2C3C4C52c2nc(C(=O)O)co2)NC(c2nccs2)=N[C@@H]1c1ccc(F)cc1Cl (single isomer, unassigned)	No
COC(=O)C1=C(C23C4C5C2C2C3C4C52C(=O)O)NC(c2nccs2)=N[C@@H]1c1cccc(F)c1C (stereo in doubt)	No
